These measurements were taken from patent US12686788B2.

Exercise: state measured % T at 325 nm for each of the molecules provided.
test-description: Percent transmission of clear coats on fused quartz plates (UV-vis)
Type: physicochemical
condition-details: clear coat, 2.0 mils dry film on fused quartz; 2.5 weight percent UVA actives where present; with HALS 2
# do not omit the unit; it follows the number

Tell me the measured % T at 325 nm of CC(C)(C)CCCCCC(=O)OCC(COc1ccc(-c2nc(-c3ccc(-c4ccccc4)cc3)nc(-c3ccc(-c4ccccc4)cc3)n2)c(O)c1)OC(=O)NCCCCCCNC(=O)N(CCCCCCN=C=O)C(=O)NCCCCCCNC(=O)OC(COC(=O)CCCCCC(C)(C)C)COc1ccc(-c2nc(-c3ccc(-c4ccccc4)cc3)nc(-c3ccc(-c4ccccc4)cc3)n2)c(O)c1 (centres unmarked) [Example 17] , please. 0.02%

Tell me the measured % T at 325 nm of CCCCCC(CC)OC(=O)N(CCCCCCN=C=O)C(=O)NCCCCCCNC(=O)OC(COC(=O)CCCCCC(C)(C)C)COc1ccc(-c2nc(-c3ccc(-c4ccccc4)cc3)nc(-c3ccc(-c4ccccc4)cc3)n2)c(O)c1 (centres unmarked) [Example 19] , please. 0.02%

Tell me the measured % T at 325 nm of CC(C)(C)CCCCCC(=O)OCC(COc1ccc(-c2nc(-c3ccc(-c4ccccc4)cc3)nc(-c3ccc(-c4ccccc4)cc3)n2)c(O)c1)OC(=O)NCCCCCCn1c(=O)n(CCCCCCN=C=O)c(=O)n(CCCCCCN=C=O)c1=O (centres unmarked) [Example 18] , please. 0.02%

Tell me the measured % T at 325 nm of CC(C)(C)CCCCCC(=O)OCC(COc1ccc(-c2nc(-c3ccc(-c4ccccc4)cc3)nc(-c3ccc(-c4ccccc4)cc3)n2)c(O)c1)OC(=O)NCCCCCNC(=O)N(CCCCCCN=C=O)C(=O)NCCCCCCN=C=O (centres unmarked) [Example 16] , please. 0.03%

Tell me the measured % T at 325 nm of CCCCCCCCON1C(C)(C)CC(OC(=O)CCCCCCCCC(=O)OC2CC(C)(C)N(OCCCCCCCC)C(C)(C)C2)CC1(C)C [HALS 2, reference compound] , please. 84.39%
